assay-target: T1, human neonatal Fc receptor (hFcRn) (human, UniProt P55899 24-290; P61769 21-119)
T1 construct: Biotinylated in the ELISA, Octet and yeast assays; also called human FcRn; huFcRn
T1 sequence (P55899 24-290 limits assumed, chain 1 of 2): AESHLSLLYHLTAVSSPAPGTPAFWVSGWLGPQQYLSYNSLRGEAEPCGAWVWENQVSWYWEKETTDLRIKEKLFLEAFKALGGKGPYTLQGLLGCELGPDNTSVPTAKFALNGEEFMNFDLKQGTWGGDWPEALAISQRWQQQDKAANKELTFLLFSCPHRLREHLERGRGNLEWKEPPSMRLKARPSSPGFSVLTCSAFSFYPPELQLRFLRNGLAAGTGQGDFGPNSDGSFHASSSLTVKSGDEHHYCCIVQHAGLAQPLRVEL
T1 sequence (P61769 21-119 limits assumed, chain 2 of 2): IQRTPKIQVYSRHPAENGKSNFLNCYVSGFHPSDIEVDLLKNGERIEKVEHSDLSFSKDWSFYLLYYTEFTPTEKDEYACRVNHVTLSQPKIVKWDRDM
assay-protocol: phage ELISA pH 6;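 further: higher score means stronger binding and above about 3 to 5 exceeds background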
Hi there, I'd appreciate the recorded ELISA score for every entry that follows.
Give bare numbers.

In the examples that follow, each entry is paired with its recorded ELISA score.
variant Fc-fragment Fc-5-66 (other, soluble elsewhere) EPKSCDKTHTCPPCPAPELLGGPSVFLFPPKPKDTLMISRTPEVTCVVVDVSHEDPEVKFNWYVDGVEVHNAKTKPREEQYNSTYRVVSVLTVLHQDWLNGKEYKCKVSNKALPAPIEKTISKAKGQPREPQVYTLPPSRDELTKNQVSLTCLVKGFYPSDIAVEWESNGGCERFHHACGGGQPENNYKTTPPVLDSDGSFFLYSKLTVDKSRWQQGNVFSCSVMHEALHNHYTQKSLSLSPGK    51.2
L5 isolate with insertion SEQ ID NO: 418 (other) EPKSCDKTHTCPPCPAPELLGGPSVFLFPPKPKDTLMISRTPEVTCVVVDVSHEDPEVKFNWYVDGVEVHNAKTKPREEQYNSTYRVVSVLTVLHQDWLNGKEYKCKVSNKALPAPIEKTISKAKGQPREPQVYTLPPSRDELTKNQVSLTCLVKGFYPSDIAVEWESNGGCITEFSHCGGGQPENNYKTTPPVLDSDGSFFLYSKLTVDKSRWQQGNVFSCSVMHEALHNHYTQKSLSLSPGK    61.2
L6A isolate with insertion SEQ ID NO: 458 (other) EPKSCDKTHTCPPCPAPELLGGPSVFLFPPKPKDTLMISRTPEVTCVVVDVSHEDPEVKFNWYVDGVEVHNAKTKPREEQYNSTYRVVSVLTVLHQDWLNGKEYKCKVSNKALPAPIEKTISKAKGQPREPQVYTLPPSRDELGGCNPVSTGAYCGGTKNQVSLTCLVKGFYPSDIAVEWESNGQPENNYKTTPPVLDSDGSFFLYSKLTVDKSRWQQGNVFSCSVMHEALHNHYTQKSLSLSPGK    48.5
L5 isolate with insertion SEQ ID NO: 490 (other) EPKSCDKTHTCPPCPAPELLGGPSVFLFPPKPKDTLMISRTPEVTCVVVDVSHEDPEVKFNWYVDGVEVHNAKTKPREEQYNSTYRVVSVLTVLHQDWLNGKEYKCKVSNKALPAPIEKTISKAKGQPREPQVYTLPPSRDELTKNQVSLTCLVKGFYPSDIAVEWESNGGCDRQVTGFCGGGQPENNYKTTPPVLDSDGSFFLYSKLTVDKSRWQQGNVFSCSVMHEALHNHYTQKSLSLSPGK    25

Here is the next item to consider.
INPUT: For L5 isolate with insertion SEQ ID NO: 406 (other) EPKSCDKTHTCPPCPAPELLGGPSVFLFPPKPKDTLMISRTPEVTCVVVDVSHEDPEVKFNWYVDGVEVHNAKTKPREEQYNSTYRVVSVLTVLHQDWLNGKEYKCKVSNKALPAPIEKTISKAKGQPREPQVYTLPPSRDELTKNQVSLTCLVKGFYPSDIAVEWESNGGCYQHHMECGGGQPENNYKTTPPVLDSDGSFFLYSKLTVDKSRWQQGNVFSCSVMHEALHNHYTQKSLSLSPGK , write its ELISA score.
OUTPUT: 73.1
